- Assay system: Human CD3eg linker (human)
- Sequence (chain, as listed by the source limits assumed): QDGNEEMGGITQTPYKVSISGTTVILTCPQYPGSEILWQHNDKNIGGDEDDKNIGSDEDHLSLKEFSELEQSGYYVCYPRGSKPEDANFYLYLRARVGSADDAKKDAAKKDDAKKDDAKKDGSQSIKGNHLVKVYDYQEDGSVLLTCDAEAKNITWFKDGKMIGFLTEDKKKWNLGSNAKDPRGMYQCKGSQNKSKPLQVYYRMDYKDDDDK
- Experiment notes: SPR; fold vs parent H183/L072
Quantity name: fold change of affinity (fold)

Binder	Quantity name	Data value
H183/L072 VL G91N (antibody, name in Kabat numbering, V domains shown) VH: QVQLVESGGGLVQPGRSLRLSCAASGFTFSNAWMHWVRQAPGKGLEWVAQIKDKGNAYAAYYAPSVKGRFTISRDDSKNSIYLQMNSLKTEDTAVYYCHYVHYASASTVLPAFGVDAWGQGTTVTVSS VL: DIVMTQSPLSLPVTPGEPASISCQASQELVHMNRNTYLHWYQQKPGQAPRLLIYKVSNRFPGVPDRFSGSGSGTDFTLKISRVEAEDVGVYYCAQNTSVPFTFGQGTKLEIK	fold change of affinity	0
H183/L072 VL P95F (antibody, name in Kabat numbering, V domains shown) VH: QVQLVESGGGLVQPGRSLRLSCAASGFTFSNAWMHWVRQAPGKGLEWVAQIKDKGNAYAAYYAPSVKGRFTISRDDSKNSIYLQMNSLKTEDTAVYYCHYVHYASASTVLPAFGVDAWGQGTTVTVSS VL: DIVMTQSPLSLPVTPGEPASISCQASQELVHMNRNTYLHWYQQKPGQAPRLLIYKVSNRFPGVPDRFSGSGSGTDFTLKISRVEAEDVGVYYCAQGTSVFFTFGQGTKLEIK	fold change of affinity	0
H183/L072 VL Q90V (antibody, name in Kabat numbering, V domains shown) VH: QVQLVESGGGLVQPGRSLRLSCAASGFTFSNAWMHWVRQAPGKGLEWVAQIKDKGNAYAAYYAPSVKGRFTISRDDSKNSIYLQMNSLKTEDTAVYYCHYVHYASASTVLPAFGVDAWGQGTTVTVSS VL: DIVMTQSPLSLPVTPGEPASISCQASQELVHMNRNTYLHWYQQKPGQAPRLLIYKVSNRFPGVPDRFSGSGSGTDFTLKISRVEAEDVGVYYCAVGTSVPFTFGQGTKLEIK	fold change of affinity	0
